Tested on: Escherichia coli TOP10
assay_notes: shrunken log2 fold change of peptide-encoding DNA abundance (4.5 h post-induction vs induction); higher = less antimicrobial activity (less host growth inhibition)
particulars: time post-induction: 4.5 h; library: site-saturation at positions 5, 18, 19, 20
Everything with shrunken log2 fold change lower than -0.08 is condition not met; everything else, including exactly -0.08, is condition met.

Field: example entries. Status: answers known.
construct_sequence	cat
RRIRERPPRLPRPRPRPYWMPRP	condition not met
RRIRMRPPRLPRPRPRPVPTPRP	condition met
RRIRNRPPRLPRPRPRPESCPRP	condition met
RRIRSRPPRLPRPRPRPLPLPRP	condition not met
RRIRWRPPRLPRPRPRPSHGPRP	condition not met
RRIRFRPPRLPRPRPRPPYSPRP	condition not met
RRIRMRPPRLPRPRPRPCSMPRP	condition met
RRIRSRPPRLPRPRPRPESRPRP	condition met
RRIRERPPRLPRPRPRPTPGPRP	condition met
RRIRPRPPRLPRPRPRPEDNPRP	condition met

Determine whether measured shrunken log2 fold change meets or exceeds -0.08 for RRIRVRPPRLPRPRPRPFKSPRP
condition met

Determine whether measured shrunken log2 fold change meets or exceeds -0.08 for RRIRQRPPRLPRPRPRPPPDPRP
condition met

Determine whether measured shrunken log2 fold change meets or exceeds -0.08 for RRIRGRPPRLPRPRPRPAFPPRP
condition met

Determine whether measured shrunken log2 fold change meets or exceeds -0.08 for RRIRFRPPRLPRPRPRPKHHPRP
condition not met

Determine whether measured shrunken log2 fold change meets or exceeds -0.08 for RRIRYRPPRLPRPRPRPCEDPRP
condition not met

* * *

Test system: Escherichia coli TOP10;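 note: peptides expressed intracellularly from a pBAD plasmid library in pooled LB shake-flask culture, induced with 0.3% L-arabinose, DNA abundance read by NGS, three biological replicates, DESeq2 with apeglm shrinkage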
assay_notes: shrunken log2 fold change of peptide-encoding DNA abundance (4.5 h post-induction vs induction); higher = less antimicrobial activity (less host growth inhibition)
particulars: time post-induction: 4.5 h; library: site-saturation at positions 5, 18, 19, 20
In this section, each of the sequences is paired with its reported shrunken log2 fold change.

Please report the measured shrunken log2 fold change for RRIRHRPPRLPRPRPRPAFIPRP
-0.037

Please report the measured shrunken log2 fold change for RRIRQRPPRLPRPRPRPTDFPRP
-0.122

Please report the measured shrunken log2 fold change for RRIRQRPPRLPRPRPRPIAHPRP
-0.148

Please report the measured shrunken log2 fold change for RRIRERPPRLPRPRPRPMWPPRP
0.186

Please report the measured shrunken log2 fold change for RRIRDRPPRLPRPRPRPHVSPRP
0.27

Please report the measured shrunken log2 fold change for RRIRSRPPRLPRPRPRPIKCPRP
-0.0332

Please report the measured shrunken log2 fold change for RRIRDRPPRLPRPRPRPPVVPRP
-0.0109

Please report the measured shrunken log2 fold change for RRIRFRPPRLPRPRPRPMCHPRP
-0.325

Please report the measured shrunken log2 fold change for RRIRMRPPRLPRPRPRPGWEPRP
0.888

Please report the measured shrunken log2 fold change for RRIRMRPPRLPRPRPRPCIAPRP
0.099

Please report the measured shrunken log2 fold change for RRIRVRPPRLPRPRPRPWQVPRP
-0.161

Please report the measured shrunken log2 fold change for RRIRCRPPRLPRPRPRPGQHPRP
0.00766

Please report the measured shrunken log2 fold change for RRIRRRPPRLPRPRPRPSGKPRP
0.845

Please report the measured shrunken log2 fold change for RRIRIRPPRLPRPRPRPGIMPRP
-0.137

Please report the measured shrunken log2 fold change for RRIRIRPPRLPRPRPRPPMSPRP
-0.288
